Reference source: ChEMBL document CHEMBL1201862

# EC50 per record follows
- measurement-protocol: cells
- Assay type: functional, cell-based
The source made the active and inactive calls.

{"compound": "Nc1ccc(C(=O)N/N=C\\c2cc(N=Nc3cccc4ccccc34)ccc2O)cc1", "EC50": "7.62 µM (active)"}
{"compound": "CN(CC(=O)Nc1ccccc1Oc1ccccc1)Cc1ccccc1F", "EC50": "> 350 µM (not active)"}
{"compound": "Cc1noc(C(=O)Nc2sc3c(c2C#N)CCC3)c1Cl", "EC50": "> 350 µM (not active)"}
{"compound": "COc1cc2c(cc1OC)C(c1ccccc1)N(S(C)(=O)=O)CC2 (centres undefined)", "EC50": "> 350 µM (not active)"}

###

Listed next: entries and their corresponding EC50.
- Test system: Streptococcus sp. 'group A'
- measurement-protocol: growth inhibition of control SK(-) GAS strain, dose response, counter-screen for streptokinase expression inhibitor project, luminescence, kanamycin, BacTiterGlo, confirmation (AID 1900)
- Type: functional, organism-based
Activity calls are given as the source filed them.

{"compound": "COc1ccc(C(=O)NC(=S)NNC(=O)c2ccccc2O)cc1", "EC50": "2700 nM (active)"}
{"compound": "O=C(COc1ccc(Cl)cc1Cl)NNC(=S)NC(=O)c1ccco1", "EC50": "309 nM (active)"}
{"compound": "FC(F)(F)c1ccc(C2[C@H]3CN(Cc4cccnc4)[C@H](c4ccccc4)C34CC2(c2cccnc2)C4)cc1 (some centres undefined)", "EC50": "2850 nM (active)"}
{"compound": "NCCCn1c(C(=O)c2cc(Cl)c(N)c(Cl)c2)c2ccc([N+](=O)[O-])cc2[n+]1[O-]", "EC50": "2800 nM (active)"}

###

- measurement-target: fMet-Leu-Phe receptor (Homo sapiens, UniProt P21462)
- Sequence (P21462 whole entry): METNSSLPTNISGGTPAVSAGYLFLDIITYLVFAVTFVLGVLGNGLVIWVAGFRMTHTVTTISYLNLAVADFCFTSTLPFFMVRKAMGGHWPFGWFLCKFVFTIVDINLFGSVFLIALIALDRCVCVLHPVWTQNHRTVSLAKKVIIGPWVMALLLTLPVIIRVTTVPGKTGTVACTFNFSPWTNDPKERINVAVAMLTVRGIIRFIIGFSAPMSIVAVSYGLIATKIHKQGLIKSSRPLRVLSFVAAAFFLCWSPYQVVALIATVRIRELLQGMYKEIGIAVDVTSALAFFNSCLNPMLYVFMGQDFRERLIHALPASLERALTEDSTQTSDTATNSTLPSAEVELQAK
- measurement-protocol: FPR ligands, dose response (AID 519)
- Format: functional
Activity calls are given as the source filed them.
Listing of entries alongside the reported Ki.

{"compound": "O=C(C1=C(O)C(=O)N(Cc2ccco2)C1c1ccccc1)c1cccs1 (centres undefined)", "measurement-target": "fMet-Leu-Phe receptor (Homo sapiens, UniProt P21462)", "Ki": "35.2 µM (inactive)"}
{"compound": "Cc1csc(NC(=O)CCn2c(=O)oc3ccccc32)n1", "measurement-target": "fMet-Leu-Phe receptor (Homo sapiens, UniProt P21462)", "Ki": "> 66.7 µM (inactive)"}
{"compound": "COc1ccc(OC)c(C2C(C(=O)c3cccs3)=C(O)C(=O)N2c2cc(C)on2)c1 (centres undefined)", "measurement-target": "fMet-Leu-Phe receptor (Homo sapiens, UniProt P21462)", "Ki": "> 66.7 µM (inactive)"}
{"compound": "CCCNC(=O)CS(=O)(=O)Cc1nc(-c2cccc(OC)c2)oc1C", "measurement-target": "fMet-Leu-Phe receptor (Homo sapiens, UniProt P21462)", "Ki": "> 66.7 µM (inactive)"}

###

- measurement-target: Caspase-6 (Homo sapiens, UniProt P55212)
- measurement-protocol: human caspase-6 inhibitors, dose response, biochemical, VEID-R110 fluorescence, cherry-pick (AID 720632)
The source made the active and inactive calls.

{"compound": "COc1cc(NC(C)CCCNC(C)C)c2ncccc2c1OC (stereo not given)", "measurement-target": "Caspase-6 (Homo sapiens, UniProt P55212)", "AC50": "1.52 µM (active)"}
{"compound": "Nc1cc2c(cc1Br)nc(O)c1ccccc12", "measurement-target": "Caspase-6 (Homo sapiens, UniProt P55212)", "AC50": "3.87 µM (active)"}
{"compound": "Cc1ccc2[nH]c3c(c2c1)CCCC3NCCO (stereo not given)", "measurement-target": "Caspase-6 (Homo sapiens, UniProt P55212)", "AC50": "22.2 µM (active)"}
{"compound": "COc1ccc(CCC(=O)Nc2ccc(S(=O)(=O)Nc3nccc(C)n3)cc2)cc1", "measurement-target": "Caspase-6 (Homo sapiens, UniProt P55212)", "AC50": "47.1 µM (active)"}
{"compound": "O=[N+]([O-])c1ccc(F)c2c(O)[nH]nc12", "measurement-target": "Caspase-6 (Homo sapiens, UniProt P55212)", "AC50": "6.73 µM (active)"}
